Target: T1, human MSLN protein endogenously expressed on OVCAR3 tumor cells (human, UniProt Q13421 296-598)
T1 construct: whole, on cells; Endogenous target on OVCAR3 cells; kept apart from the recombinant full-length construct; also called mesothelin
T1 sequence (Q13421 other isoform, or with tags, fused parts or gaps): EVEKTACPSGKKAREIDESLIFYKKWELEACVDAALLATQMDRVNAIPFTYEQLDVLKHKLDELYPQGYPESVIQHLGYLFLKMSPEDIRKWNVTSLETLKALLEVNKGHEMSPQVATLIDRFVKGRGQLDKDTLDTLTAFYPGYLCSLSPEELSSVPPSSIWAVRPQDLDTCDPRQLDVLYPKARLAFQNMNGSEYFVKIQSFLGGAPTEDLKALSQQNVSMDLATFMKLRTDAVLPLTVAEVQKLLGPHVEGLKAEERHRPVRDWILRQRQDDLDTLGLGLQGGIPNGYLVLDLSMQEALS
Assay: FACS on OVCAR3 cells
measurement-type: Maximum mean fluorescence intensity
Provide a numeric answer; units are not to be included.

{"binder": "S009-F1.62.9 (antibody, human IgG1, kappa, V domains shown, human-murine chimeric antibody, human IgG1/kappa constant regions) VH: EVQLQQSGADLVKPGASVKLSCTVFGLNFKDTFMHWVRQRPEQGLEWIGRIDPANDNSIYGPKFQDKATITADTSSNTAYLHLSSLTSEDTAVYYCLYFDNWGHGTTLTVSS VL: DIVMTQAASSEPVTPGESVSISCRSDKSLLHSNGHNYLYWFLQRPGQSPHLLIYRMSNLASGVPDRFSGSGSGTAFTLRISRVEAEDVGVYYCMQHLEYPLTFGAGTKLELKR", "Maximum mean fluorescence intensity": 425}
{"binder": "S009-F1.35.24 (antibody, human IgG1, kappa, V domains shown, human-murine chimeric antibody, human IgG1/kappa constant regions) VH: EVQLQQSEPELVKPGASVRISCKASGYSFTDYYMHWVKQSPENRLEWIGEINPSTGGTSYNPKFKDKATLTVDKSSSTAYMQLKSLTSEESAVYYCTRYHYYGSSSYVMDYWGQGTSVTVSS VL: QIVLTQSPAILSASPGERVTMTCSASSSVYHMHWFQQKSGTSPKRWVYDTSKLASGVPARFSGSGSGTSYSLTISSMEAEDAATYYCQHWRTNPLTFGAGTKLELKR", "Maximum mean fluorescence intensity": 10500}

# input for lookup
# Maximum mean fluorescence intensity of S009-F1.57.1 (antibody, human IgG1, kappa, V domains shown, human-murine chimeric antibody, human IgG1/kappa constant regions) VH: EAQLQQSGAVFVKPGASVKLSCTASGFSSKDIFLHWVKQRPEQGLEWIGRIDPASDNTIYDPKFQDRATITSDRSSNTAYLQFSSLTSEDTAVYFCLYFDFWGQGTTLTVSS VL: DIVMTQATPSISVTPGESVSISCRSSESLLHSNGNTYLYWFLQRPGQSPQLLIYRMSNLASGVPDRFSVSGSGTAFTLRISRVEAEDVGVYYCMQHLEYPLTFGAGTKLELKR = 948

Recorded values, source patent US20250250357A1.
